target: soluble TSHR protein (ELISA coat) (human, UniProt P16473 22-260, limits assumed); experiment: ELISA, plate coated with soluble TSHR, antibody at 100 nM, anti-human IgG Fc-HRP;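 further: binding of antibody variants to soluble TSHR coated at 2 µg/ml, with colour developed using TMB substrate and stopped with H2SO4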
measured metric: ELISA (OD 450) at 100 nM
The reply should be a number in OD 450, with the unit left off.

Looking up TSHB-6 (antibody, V domains shown) VH: EVQLVQSGAEVKKPGESLKISCKASGYSLNDNWIGWVRQKPGKGLEWMGIIYPGDSDTRYSPSFQGQVTISADKSISTAYLQWSSLKASDTAIYYCVGLDWNYNPLRYWGQGTLVTVSS VL: QSVLTQPPSVSAAPGQKVTISCSGSSSDIGSNYVSWYQQFPGTAPKLLIYDNNKRPSAIPDRFSGSKSGTSATLGITGLQTGDEADYYCGTWDSRLGIAVFGGGTQLTVL , I see its ELISA (OD 450) at 100 nM listed as 0.493
